Task for the reader: assign each of the following compounds its reported growth.
system: CAKI-1 renal; assay: NCI-60 one-dose screen, 48 h (100 = growth as untreated, 0 = no growth, -100 = all killed); conditions: 10 µM unless noted
The panel holds about 83,000 compounds, 20% with a hit somewhere; the sample as a whole holds those more often.
Give a bare numeral; the unit % is implied.

Consider the compound c1ccc2c(c1)nc(CN1CCOCC1)n1cc(N3CCCC3)nc21 . State its measured growth.
99.5

Consider the compound COc1ccc(-c2c(N)n[nH]c2-c2ccc(Cl)cc2O)cc1OC . State its measured growth.
90.5

Consider the compound CCCCCCN(CCCCCC)c1ccc(/C=C2/SC(=O)N(c3nc(N4CCCC4)nc(N4CCCC4)n3)C2=O)c(C)c1 . State its measured growth.
82.5

Consider the compound COc1cc(C2NC(=O)c3ccccc3N2)ccc1OCCCCCOc1c(OC)cc(C2=NOC(c3cc(OC)c(OC)c(OC)c3)C2)cc1OC (centres undefined) . State its measured growth.
89.2

Consider the compound Cc1nc2ccccc2c(/C=C/c2ccc(Cl)cc2)c1C(=O)/C=C/c1ccc(F)cc1 . State its measured growth.
-10.1

Consider the compound Cc1ccc(Cl)cc1NC(=O)c1cc2ccccc2cc1O . State its measured growth.
-16.8

Consider the compound O=C(Nc1ccc(-n2cc(-c3ccncc3)c(-c3ccc(Cl)c(O)c3)n2)cc1)N1CCOCC1 . State its measured growth.
105

Consider the compound CC1=CN2C(=O)C3C4=C(CCCC4)SC3N=C2CN1c1c(C)cccc1C (centres undefined) . State its measured growth.
81.1

Consider the compound O=C1/C(=C/c2ccc(F)cc2)C=C(c2ccccc2)N1CCc1ccccc1 . State its measured growth.
76

Consider the compound CC(C)(C)C(CCc1ccc(Cl)cc1)N1CCN(C2CCCCC2)CC1 (centres undefined) . State its measured growth.
35.8

Consider the compound COc1ccc2c(c1)CCCN2c1c2ccccc2nc2ccccc12 . State its measured growth.
27.8

Consider the compound N=C1C(c2nc(-c3ccc(Br)cc3)cs2)=C(O)CN1CC1CCCO1 (centres undefined) . State its measured growth.
90.4

Consider the compound CCN(CC)CCCCCCNc1cc(OC)c(Cl)c2cccnc12 . State its measured growth.
84.6

Consider the compound N#Cc1c(-c2cccc(Cl)c2)cc(-c2cccc(Cl)c2)[nH]c1=O . State its measured growth.
63.6

Consider the compound C[n+]1cc2c3c(ccc2c2ccc4cc5c(cc4c21)OCO5)OCO3 . State its measured growth.
-29.9

Consider the compound COC(=O)[C@]12CC[C@@H](C)[C@H](C)[C@@H]1C1=CC[C@@H]3[C@@]4(C)C(C=O)=C[C@@](C)(COS(C)(=O)=O)C4[C@H](O)C[C@@]3(C)[C@]1(C)CC2 (some centres undefined) . State its measured growth.
-15.6

Consider the compound COc1cccc(-c2nn(-c3ccccc3)cc2-c2ccnc(NCCCNC(=O)c3cccc(C(F)(F)F)c3)c2)c1 . State its measured growth.
51.4

Consider the compound COc1ccc(CN2C(=O)C(Cl)=C(Nc3cccc(C(F)(F)F)c3)C2=O)cc1 . State its measured growth.
37.4

Consider the compound Cc1ccc2[nH]c(=O)c3c(c2c1)OC(N)=C(C#N)C31c2cc(Br)ccc2-c2ccc(Br)cc21 . State its measured growth.
49.1
